Recorded pIC50 for the following compounds
tested.target: human FOXO1 (constitutively active form Thr24Ala, Ser256Ala, Ser319Ala) (Homo sapiens, UniProt Q12778, S256A/S319A/T24A)
Sequence (Q12778 whole entry T24A/S256A/S319A): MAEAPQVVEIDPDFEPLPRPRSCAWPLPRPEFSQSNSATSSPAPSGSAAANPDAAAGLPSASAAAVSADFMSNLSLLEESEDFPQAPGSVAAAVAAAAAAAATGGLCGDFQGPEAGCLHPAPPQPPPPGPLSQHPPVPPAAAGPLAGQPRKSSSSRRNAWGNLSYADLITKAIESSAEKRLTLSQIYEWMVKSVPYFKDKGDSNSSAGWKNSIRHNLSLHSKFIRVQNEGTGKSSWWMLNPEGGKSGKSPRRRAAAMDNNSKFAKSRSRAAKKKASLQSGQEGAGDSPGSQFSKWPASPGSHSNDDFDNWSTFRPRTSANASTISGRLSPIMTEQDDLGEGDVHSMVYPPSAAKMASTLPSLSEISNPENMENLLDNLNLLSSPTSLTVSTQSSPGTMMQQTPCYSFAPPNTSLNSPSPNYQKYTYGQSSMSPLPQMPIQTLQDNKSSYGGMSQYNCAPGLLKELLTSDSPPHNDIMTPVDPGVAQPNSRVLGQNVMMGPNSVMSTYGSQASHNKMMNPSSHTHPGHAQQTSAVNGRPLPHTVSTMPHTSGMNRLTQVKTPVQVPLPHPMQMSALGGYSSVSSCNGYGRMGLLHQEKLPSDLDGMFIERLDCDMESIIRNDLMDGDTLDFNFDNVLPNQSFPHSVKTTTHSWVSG
run.description: FOXO1 inhibitor activity assay: cell-based transcriptional (luciferase) reporter assay in HEK293 cells
condition.info: HEK293 cells transfected with insulin response element firefly luciferase reporter, FOXO1 and Renilla luciferase; 10-point dose response 50 μM to 2.5 nM; 24 hours
pIC50: −log10 of the molar value.

A selection of reference data follows.
compound	pIC50
Cn1nc(NC(=O)c2ccc(N3CCN(CCO)CC3)nc2)cc1-c1nc2ccccc2[nH]1 [Compound A-204]	6.52 to 7.00
O=C(Nc1cc(-c2nc3cc(F)ccc3[nH]2)[nH]n1)c1ccc(N2CCC(CO)CC2)nc1 [Compound A-80]	> 7.00

Prompt: Identify measured pIC50 corresponding to COCCCOc1ccc(C(=O)Nc2cc(-c3nc4cc(OC)ccc4[nH]3)[nH]n2)cc1Cl [Compound A-58]
Completion: > 7.00

Prompt: Identify measured pIC50 corresponding to COC1CCN(c2ccc(C(=O)Nc3cc(-c4nc5ccccc5[nH]4)[nH]n3)cn2)CC1 [Compound A-159]
Completion: > 7.00

Prompt: Identify measured pIC50 corresponding to Cn1nc(NC(=O)c2ccc(N3CCN(CCOC4CC4)CC3)nc2)cc1-c1nc2ccccc2[nH]1 [Compound A-266]
Completion: > 7.00

Prompt: Identify measured pIC50 corresponding to O=C(Nc1cc(-c2nc3cc(C(F)(F)F)ccc3[nH]2)[nH]n1)c1ccc(OCCO)c(Cl)c1 [Compound A-123, formic acid]
Completion: > 7.00

Prompt: Identify measured pIC50 corresponding to COCCN1CCN(c2ccc(C(=O)Nc3cc(-c4nc5cc(OC)cc(F)c5[nH]4)[nH]n3)cn2)CC1 [Compound A-192]
Completion: < 6.00

Prompt: Identify measured pIC50 corresponding to CC(O)CN1CCN(c2ccc(C(=O)Nc3cc(-c4nc5ccccc5[nH]4)n(C)n3)cc2)CC1 (stereo not drawn) [A-257]
Completion: > 7.00

Prompt: Identify measured pIC50 corresponding to Cc1ccc2[nH]c(-c3cc(NC(=O)c4ccc(N5CCC(O)CC5)nc4)n[nH]3)nc2c1 [Compound A-99]
Completion: 6.52 to 7.00

Prompt: Identify measured pIC50 corresponding to COCCN1CCN(c2ccc(C(=O)Nc3cc(-c4nc5cc(F)ccc5[nH]4)n(C)n3)cn2)CC1 [Compound A-149]
Completion: 6.52 to 7.00

Prompt: Identify measured pIC50 corresponding to Cn1nc(NC(=O)c2ccc(N3CC4CC(C3)N4)nc2)cc1-c1nc2ccccc2[nH]1 [Compound A-284]
Completion: 6.52 to 7.00
